Please provide measured pIC50 for the entries that follow.
- Target or test system: human α1H T-type channels (Homo sapiens, UniProt O95180)
- Construct: expressed in transfected cells; host or cells: HEK 293
- Sequence (O95180 whole entry): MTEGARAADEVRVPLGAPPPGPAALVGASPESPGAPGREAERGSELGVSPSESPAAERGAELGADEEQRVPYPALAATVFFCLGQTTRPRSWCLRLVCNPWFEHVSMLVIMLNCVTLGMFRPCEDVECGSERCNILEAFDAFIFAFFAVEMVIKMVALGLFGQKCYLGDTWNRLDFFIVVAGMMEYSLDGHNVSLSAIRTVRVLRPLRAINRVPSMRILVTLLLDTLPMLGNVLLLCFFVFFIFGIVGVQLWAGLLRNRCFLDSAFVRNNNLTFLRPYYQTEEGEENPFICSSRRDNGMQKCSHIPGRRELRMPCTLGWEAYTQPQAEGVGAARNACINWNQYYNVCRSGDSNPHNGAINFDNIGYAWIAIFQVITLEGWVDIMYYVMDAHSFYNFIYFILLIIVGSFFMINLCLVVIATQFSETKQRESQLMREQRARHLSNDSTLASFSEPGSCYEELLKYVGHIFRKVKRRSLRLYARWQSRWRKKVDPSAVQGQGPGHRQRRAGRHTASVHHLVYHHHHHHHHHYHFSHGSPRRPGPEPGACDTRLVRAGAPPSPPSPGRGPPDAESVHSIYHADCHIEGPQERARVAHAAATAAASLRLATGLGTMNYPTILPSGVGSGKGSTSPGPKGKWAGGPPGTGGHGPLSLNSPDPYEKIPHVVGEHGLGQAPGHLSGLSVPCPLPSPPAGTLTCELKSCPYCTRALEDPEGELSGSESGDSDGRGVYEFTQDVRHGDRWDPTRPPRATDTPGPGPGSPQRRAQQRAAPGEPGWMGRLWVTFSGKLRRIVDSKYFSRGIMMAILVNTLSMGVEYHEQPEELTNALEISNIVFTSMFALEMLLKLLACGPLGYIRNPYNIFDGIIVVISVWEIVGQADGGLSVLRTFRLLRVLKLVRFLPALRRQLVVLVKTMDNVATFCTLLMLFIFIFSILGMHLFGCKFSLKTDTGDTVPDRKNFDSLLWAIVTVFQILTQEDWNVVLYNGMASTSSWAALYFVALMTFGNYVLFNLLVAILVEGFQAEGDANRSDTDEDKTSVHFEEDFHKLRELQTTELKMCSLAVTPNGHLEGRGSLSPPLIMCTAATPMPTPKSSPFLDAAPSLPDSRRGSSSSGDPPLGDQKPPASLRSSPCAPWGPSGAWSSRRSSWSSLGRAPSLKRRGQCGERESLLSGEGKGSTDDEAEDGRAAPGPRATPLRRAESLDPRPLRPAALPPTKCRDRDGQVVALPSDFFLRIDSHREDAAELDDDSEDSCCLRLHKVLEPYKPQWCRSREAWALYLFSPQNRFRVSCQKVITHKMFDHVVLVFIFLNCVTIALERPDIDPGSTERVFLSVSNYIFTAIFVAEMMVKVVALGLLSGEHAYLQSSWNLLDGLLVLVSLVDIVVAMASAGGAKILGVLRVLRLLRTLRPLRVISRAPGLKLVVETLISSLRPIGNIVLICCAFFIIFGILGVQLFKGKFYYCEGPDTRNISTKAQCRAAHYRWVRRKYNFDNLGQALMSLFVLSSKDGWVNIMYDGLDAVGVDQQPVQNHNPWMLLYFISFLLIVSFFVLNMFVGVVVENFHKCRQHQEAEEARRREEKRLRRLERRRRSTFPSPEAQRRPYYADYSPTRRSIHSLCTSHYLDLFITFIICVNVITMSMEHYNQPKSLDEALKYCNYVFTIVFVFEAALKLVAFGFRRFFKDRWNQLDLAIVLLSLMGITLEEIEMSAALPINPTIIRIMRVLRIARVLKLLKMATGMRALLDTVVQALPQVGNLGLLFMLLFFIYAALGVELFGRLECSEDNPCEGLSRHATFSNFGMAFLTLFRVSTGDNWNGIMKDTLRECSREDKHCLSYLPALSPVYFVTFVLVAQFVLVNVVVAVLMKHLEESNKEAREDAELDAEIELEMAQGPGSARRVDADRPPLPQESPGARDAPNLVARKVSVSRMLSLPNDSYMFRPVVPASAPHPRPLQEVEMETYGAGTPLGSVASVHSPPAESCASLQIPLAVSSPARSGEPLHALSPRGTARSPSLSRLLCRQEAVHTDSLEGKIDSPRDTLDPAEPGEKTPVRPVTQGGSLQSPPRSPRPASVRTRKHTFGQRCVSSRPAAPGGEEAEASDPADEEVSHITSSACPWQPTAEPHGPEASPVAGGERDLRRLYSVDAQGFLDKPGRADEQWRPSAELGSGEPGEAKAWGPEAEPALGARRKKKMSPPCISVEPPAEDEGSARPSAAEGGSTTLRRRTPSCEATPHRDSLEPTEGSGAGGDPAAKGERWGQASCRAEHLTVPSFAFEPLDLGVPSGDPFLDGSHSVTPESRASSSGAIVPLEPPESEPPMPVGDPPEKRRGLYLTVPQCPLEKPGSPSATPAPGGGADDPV
- Run description: T-type calcium channel block, whole cell patch clamp in HEK cells (α1H)
- Assay type: cell-based
- Details: HEK cells, patch clamp, mainly non-inactivated protocol; values above 10 μM shown as 10 μM; read-out: T-type Calcium Channel Block α1H IC50
// pIC50 here means minus log10 of the molar concentration (mol/L)

Need pIC50, item CC(C)(C)OC(=O)NCCN1CCC(CNC(=O)c2cc(Cl)cc(C(F)(F)F)c2)CC1
6.80

Query CC(C(=O)NC1(C)CCCCC1)N1CCC(CNC(=O)c2cc(F)cc(Cl)c2)CC1 (centres unmarked) next
7.70

Consider next the molecule CC1CCCCC1NCC(=O)N1CCC(CNC(=O)c2cc(F)cc(C(F)(F)F)c2)CC1 (centres unmarked) in the same way.
6.18

Now the molecule COc1cc(F)cc(C(=O)NCC2CCN(CCNS(=O)(=O)C(F)(F)F)CC2)c1
5.47

Now the molecule CC(C)(C)C(=O)NCCN1CCC(CNC(=O)c2cccc(OC(F)(F)F)c2)CC1
6.13

Another: CC(C)COC(=O)NC1(CN2CCC(CNC(=O)c3cc(C(F)(F)F)cc(C(F)(F)F)c3)CC2)CCCC1
7.10
